Molecular target: FPR2 (Homo sapiens, UniProt P25090)
Construct: expressed in transfected cells; host or cells: CHO-Gα16 cells
Test: Compound-induced calcium activity on FLIPR Tetra in Gα16 cells stably expressing FPR2
Type: cell-based
Settings: relative efficacy, value in brackets, table head Ga16-HEK293, text CHO-Gα16 cells
Description: CHO-Gα16 cells stably expressing FPR1 or FPR2 were cultured in (F12, 10% FBS, 1% PSA, 400 μg/ml geneticin and 50 μg/ml hygromycin). In general, the day before the experiment, 18,000 cells/well were plated in a 384-well clear bottom poly-D-lysine coated plate. The following day the screening compound-induced calcium activity was assayed on the FLIPR^Tetra. […] Results are expressed as EC50 (nM) and efficacy values.
property: FPR2 Ga16-HEK293 (Rel. eff.)

molecule: O=C(CNC(=O)Nc1ccc(Br)cc1)N[C@@H](Cc1ccccc1)C(=O)O [Compound 4]
observed measurement: 1.07
--
molecule: CC(C)C[C@H](NC(=O)CCNC(=O)Nc1ccc(Br)cc1)C(=O)O [Compound 5]
observed measurement: 0.81
--
molecule: CCC[C@H](NC(=O)CNC(=O)Nc1ccc(Br)cc1)C(=O)O [Compound 6]
observed measurement: 1.05
--
molecule: CC(C)C[C@H](NC(=O)CNC(=O)Nc1ccc(Br)cc1)C(=O)O [Compound 1]
observed measurement: 0.91

* * *

Target: FPR2 (Homo sapiens, UniProt P25090)
Sequence (P25090 1-351): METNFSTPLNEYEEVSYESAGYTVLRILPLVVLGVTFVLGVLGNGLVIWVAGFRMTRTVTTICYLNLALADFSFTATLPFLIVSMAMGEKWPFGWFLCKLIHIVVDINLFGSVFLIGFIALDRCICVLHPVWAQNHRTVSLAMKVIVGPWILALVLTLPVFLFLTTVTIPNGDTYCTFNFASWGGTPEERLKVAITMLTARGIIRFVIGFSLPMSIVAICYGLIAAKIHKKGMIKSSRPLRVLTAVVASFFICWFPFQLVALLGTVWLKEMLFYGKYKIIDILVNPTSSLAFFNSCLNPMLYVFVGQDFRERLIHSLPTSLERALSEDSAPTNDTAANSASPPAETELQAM
Assay: Compound-induced calcium activity on FLIPR Tetra in Gα16 cells stably expressing FPR2
Settings: table head Ga16-HEK293, text CHO-Gα16 cells stably expressing FPR2, tested 0.61 to 10,000 nM
property: EC50 (nM)

Look over these answered cases.
given smiles: CC(C)C[C@H](NC(=O)CCNC(=O)Nc1ccc(Br)cc1)C(=O)O
observed measurement: 5630
--
given smiles: CCC[C@H](NC(=O)CNC(=O)Nc1ccc(Br)cc1)C(=O)O
observed measurement: 308

I: O=C(CNC(=O)Nc1ccc(Br)cc1)N[C@@H](Cc1ccccc1)C(=O)O
II: CC(C)C[C@H](NC(=O)CNC(=O)Nc1ccc(Br)cc1)C(=O)O
[in] For the pair I and II , which entry has the numerically smaller recorded EC50? // return label of chosen record
[out] II
(II: 224 nM, I: 356 nM)

* * *

Molecular target: FPR1 (Homo sapiens)
Construct: expressed in transfected cells; host or cells: CHO-Gα16 cells
Sequence (P21462 1-350): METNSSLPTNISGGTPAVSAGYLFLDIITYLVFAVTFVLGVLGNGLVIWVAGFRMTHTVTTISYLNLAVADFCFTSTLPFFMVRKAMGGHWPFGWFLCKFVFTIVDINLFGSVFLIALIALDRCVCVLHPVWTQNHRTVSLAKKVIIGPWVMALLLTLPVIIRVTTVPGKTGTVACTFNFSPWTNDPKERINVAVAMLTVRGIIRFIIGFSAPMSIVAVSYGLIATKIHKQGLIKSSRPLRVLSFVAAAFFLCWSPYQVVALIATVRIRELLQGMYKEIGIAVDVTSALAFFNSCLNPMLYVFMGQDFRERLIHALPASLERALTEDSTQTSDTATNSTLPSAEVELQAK
Experiment: Compound-induced calcium activity on FLIPR Tetra in Gα16 cells stably expressing FPR1
Format: cell-based
Details: relative efficacy, value in brackets, table head Ga16-HEK293, text CHO-Gα16 cells
property: FPR1 Ga16-HEK293 (Rel. eff.)

given smiles: CC(C)C[C@H](NC(=O)CNC(=O)Nc1ccc(Br)cc1)C(=O)O
property: FPR1 Ga16-HEK293 (Rel. eff.)
observed measurement: 1.00

given smiles: CC(C)C[C@H](NC(=O)CCNC(=O)Nc1ccc(Br)cc1)C(=O)O
property: FPR1 Ga16-HEK293 (Rel. eff.)
observed measurement: 0.99

given smiles: CCC[C@H](NC(=O)CNC(=O)Nc1ccc(Br)cc1)C(=O)O
property: FPR1 Ga16-HEK293 (Rel. eff.)
observed measurement: 0.98

given smiles: O=C(CNC(=O)Nc1ccc(Br)cc1)N[C@@H](Cc1ccccc1)C(=O)O
property: FPR1 Ga16-HEK293 (Rel. eff.)
observed measurement: 0.97

Data origin: patent US20240025844A1
